Biological target: Procathepsin L (Homo sapiens)
Sequence (P07711 whole entry): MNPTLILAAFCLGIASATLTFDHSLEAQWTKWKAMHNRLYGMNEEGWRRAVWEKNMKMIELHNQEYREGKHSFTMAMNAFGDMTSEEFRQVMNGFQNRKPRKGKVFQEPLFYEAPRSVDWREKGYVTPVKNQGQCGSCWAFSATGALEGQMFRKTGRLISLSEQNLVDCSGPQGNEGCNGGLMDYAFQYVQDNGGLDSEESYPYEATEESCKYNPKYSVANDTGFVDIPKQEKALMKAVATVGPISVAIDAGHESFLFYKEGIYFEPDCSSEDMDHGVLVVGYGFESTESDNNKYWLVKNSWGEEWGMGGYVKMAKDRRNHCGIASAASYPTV
pKi: −log10 of the molar value.

{"columns": ["substance_smiles", "reading_qualifier", "pKi"],
 "data": [
  ["COC(=O)/C=C/CNC(=O)CN1C(=O)[C@@H](COC(=O)NC23CC4CC(CC(C4)C2)C3)N=C(c2ccccc2)c2ccccc21", "=", 4.19],
  ["COC(=O)/C=C/CNC(=O)CN1C(=O)[C@@H](COC(=O)Nc2ccc(Cl)cc2C(F)(F)F)N=C(c2ccccc2)c2cc(Cl)ccc21", "=", 4.53],
  ["COC(=O)/C=C/[C@H](CC(C)C)NC(=O)CN1C(=O)[C@@H](COC(=O)Nc2ccc(Cl)cc2C(F)(F)F)N=C(c2ccccc2)c2ccccc21", "<", 3.82],
  ["COC(=O)/C=C/CNC(=O)CN1C(=O)[C@@H](COC(=O)Nc2ccc(Cl)cc2C(F)(F)F)N=C(c2ccc(OC)cc2)c2ccccc21", "=", 4.22],
  ["COC(=O)/C=C/CNC(=O)CN1C(=O)[C@@H](COC(=O)Nc2ccc(OC)cc2)N=C(c2ccccc2)c2ccccc21", "=", 4.92],
  ["COC(=O)/C=C/CNC(=O)CN1C(=O)[C@@H](COC(=O)Nc2ccc(Cl)cc2C(F)(F)F)N=C(c2ccc(Br)cc2)c2ccccc21", "<", 3.82],
  ["CCCCNC(=O)OC[C@H]1N=C(c2ccccc2)c2ccccc2N(CC(=O)NC/C=C/C(=O)OC)C1=O", "=", 5.57],
  ["COC(=O)/C=C/CNC(=O)CN1C(=O)[C@@H](COC(=O)NC2CCCCC2)N=C(c2ccccc2)c2ccccc21", "=", 4.12],
  ["COC(=O)/C=C/CNC(=O)CN1C(=O)[C@@H](COC(=O)Nc2cccc3ccccc23)N=C(c2ccccc2)c2ccccc21", "=", 4.91]
]}
